Biological target: Protein-glutamine gamma-glutamyltransferase (Homo sapiens, UniProt P21980)
Sequence (P21980 whole entry): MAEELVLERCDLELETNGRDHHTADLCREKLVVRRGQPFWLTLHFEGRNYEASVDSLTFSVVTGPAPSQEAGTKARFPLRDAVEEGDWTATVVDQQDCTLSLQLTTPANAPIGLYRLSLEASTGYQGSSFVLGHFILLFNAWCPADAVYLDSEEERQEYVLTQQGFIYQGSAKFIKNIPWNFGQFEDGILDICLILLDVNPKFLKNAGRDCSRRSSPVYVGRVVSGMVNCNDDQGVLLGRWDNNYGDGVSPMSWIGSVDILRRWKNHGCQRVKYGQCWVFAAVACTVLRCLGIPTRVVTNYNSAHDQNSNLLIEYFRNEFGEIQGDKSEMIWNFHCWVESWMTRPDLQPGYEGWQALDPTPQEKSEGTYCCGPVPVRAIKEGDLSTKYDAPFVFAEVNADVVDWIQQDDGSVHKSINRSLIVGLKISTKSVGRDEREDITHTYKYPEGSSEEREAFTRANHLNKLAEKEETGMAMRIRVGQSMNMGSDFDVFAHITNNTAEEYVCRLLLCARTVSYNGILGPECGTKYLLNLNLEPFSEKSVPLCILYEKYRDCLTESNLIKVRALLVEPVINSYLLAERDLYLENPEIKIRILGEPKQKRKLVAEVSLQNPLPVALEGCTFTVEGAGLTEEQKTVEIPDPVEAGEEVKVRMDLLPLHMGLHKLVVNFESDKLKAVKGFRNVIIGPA
pIC50: −log10 of the molar value.
QUANTITY KIND: pIC50

1. NC(=O)[C@H]1O[C@H]1C(=O)Nc1ccc(Oc2ccccc2)cc1 (racemic)
7.34
2. NC(=O)[C@@H]1O[C@@H]1C(=O)Nc1ccc(Br)cc1 (racemic)
7.24
3. NC(=O)[C@H]1O[C@H]1C(=O)Nc1cccc(Oc2ccccc2)c1 (racemic)
7.30
4. NC(=O)[C@@H]1O[C@@H]1C(=O)Nc1ccc(Oc2ccc(NC(=O)c3ccc(F)cc3)cc2)cc1 (racemic)
6.82
5. NC(=O)[C@@H]1O[C@@H]1C(=O)Nc1ccc(Oc2ccc(N)cc2)cc1 (racemic)
7.32

P. NC(=O)[C@@H]1O[C@@H]1C(=O)Nc1ccc(Br)c(Cl)c1 (racemic)
Q. Cc1ccc(NC(=O)[C@H]2O[C@H]2C(N)=O)cc1C (racemic)
Q: Which value of pIC50 is smaller, the one for P or the one for Q ? Record your answer as the label of the chosen record.
Result: Q
(Q: 6.89, P: 8.02)

###

molecular target: Coagulation factor XIII A chain (Homo sapiens, UniProt P00488); assay: Inhibition of thrombin-activated F13-A (unknown origin) in plasma assessed as inhibition of fibrin clot formation after 7 mins by biotin incorporation assay
Sequence (P00488 whole entry): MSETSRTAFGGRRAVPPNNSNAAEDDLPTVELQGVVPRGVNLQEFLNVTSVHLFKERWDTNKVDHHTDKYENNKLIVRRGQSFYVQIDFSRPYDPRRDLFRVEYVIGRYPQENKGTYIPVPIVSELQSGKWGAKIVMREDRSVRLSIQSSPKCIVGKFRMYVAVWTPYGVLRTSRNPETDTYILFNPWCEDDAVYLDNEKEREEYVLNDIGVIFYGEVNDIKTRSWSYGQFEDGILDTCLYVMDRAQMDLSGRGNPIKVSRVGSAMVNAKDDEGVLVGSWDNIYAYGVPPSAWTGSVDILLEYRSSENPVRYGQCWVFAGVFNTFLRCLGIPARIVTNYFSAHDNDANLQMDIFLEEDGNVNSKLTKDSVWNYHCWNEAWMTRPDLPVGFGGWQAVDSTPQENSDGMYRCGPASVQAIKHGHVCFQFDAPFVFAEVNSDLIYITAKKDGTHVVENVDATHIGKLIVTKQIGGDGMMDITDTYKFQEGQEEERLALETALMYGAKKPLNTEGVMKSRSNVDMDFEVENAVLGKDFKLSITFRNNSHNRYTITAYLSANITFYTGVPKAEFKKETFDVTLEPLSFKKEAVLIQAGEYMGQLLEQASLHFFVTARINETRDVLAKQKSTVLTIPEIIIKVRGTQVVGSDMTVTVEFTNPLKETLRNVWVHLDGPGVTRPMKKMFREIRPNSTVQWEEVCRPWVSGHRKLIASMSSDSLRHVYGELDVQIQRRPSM
QUANTITY KIND: IC50 (nM)

// below: answered compounds
1. NC(=O)[C@@H]1O[C@@H]1C(=O)Nc1ccc(Br)cc1 (racemic)
130
2. Cc1ccc(NC(=O)[C@H]2O[C@H]2C(N)=O)cc1C (racemic)
110
3. NC(=O)[C@@H]1O[C@@H]1C(=O)Nc1ccccc1 (racemic)
720
4. CCCCc1ccc(NC(=O)[C@@H]2O[C@@H]2C(N)=O)cc1 (racemic)
220
5. NC(=O)[C@@H]1O[C@@H]1C(=O)Nc1ccc(CCNS(=O)(=O)c2ccccc2[N+](=O)[O-])cc1 (racemic)
90
6. NC(=O)[C@H]1O[C@H]1C(=O)Nc1ccc(Oc2ccccc2)cc1 (racemic)
55
7. NC(=O)[C@@H]1O[C@@H]1C(=O)Nc1ccc(Br)c(Cl)c1 (racemic)
4
8. NC(=O)[C@@H]1O[C@@H]1C(=O)Nc1ccc(Oc2ccc(N)cc2)cc1 (racemic)
86
9. NC(=O)[C@H]1O[C@H]1C(=O)Nc1cccc(Cl)c1 (racemic)
48
10. NC(=O)[C@@H]1O[C@@H]1C(=O)Nc1ccc(Oc2ccc([N+](=O)[O-])cc2)cc1 (racemic)
430

I. NC(=O)[C@H]1O[C@H]1C(=O)Nc1cccc(Oc2ccccc2)c1 (racemic)
II. NC(=O)[C@@H]1O[C@@H]1C(=O)Nc1ccc(Oc2ccc(NC(=O)c3ccc(F)cc3)cc2)cc1 (racemic)
Q: # argmax over IC50 for candidates I and II Record your answer as the label of the chosen record.
Result: II

###

target: Protein-glutamine gamma-glutamyltransferase (Homo sapiens); assay: Inhibition of transglutaminase 2 (unknown origin)
QUANTITY KIND: IC50 (nM)

1) NC(=O)[C@@H]1O[C@@H]1C(=O)Nc1ccccc1 (racemic)
1100
2) CCCCc1ccc(NC(=O)[C@@H]2O[C@@H]2C(N)=O)cc1 (racemic)
150

a. NC(=O)[C@H]1O[C@H]1C(=O)Nc1cccc(Cl)c1 (racemic)
b. NC(=O)[C@@H]1O[C@@H]1C(=O)Nc1ccc(CCNS(=O)(=O)c2ccccc2[N+](=O)[O-])cc1 (racemic)
Q: Which value of IC50 is smaller, the one for a or the one for b ? Record your answer as the label of the chosen record.
Result: a
(a: 48 nM, b: 88 nM)

Reference source for all entries: ChEMBL document CHEMBL3421597
